Experiment: Chemical stability in simulated gastric fluid (SGF) without pepsin
Assay type: physicochemical
Conditions: Table 2B, 50 μM prodrug
parameter: Chemical Stability SGF, no enzyme % T0 at 2 hours at 37 °C. (%)
Hi! Could you send only the number? It should be in %, unit omitted.

Input: Using the record for Cl.[2H]C([2H])([2H])N(CC(=O)OCC)C(=N)NC(=O)CCCCCCCCCC [Compound 8] , state its measured Chemical Stability SGF, no enzyme % T0 at 2 hours at 37 °C..
Output: 95

Input: Using the record for [2H]C([2H])([2H])N(CC(=O)O)C(=N)NC(=O)CCCCCCCCCCO [Compound 54] , state its measured Chemical Stability SGF, no enzyme % T0 at 2 hours at 37 °C..
Output: 102

Input: Using the record for [2H]C([2H])([2H])N(CC(=O)[O-])C(=N)NC(=O)CCCCCCCCCC(C)O.[Na+] (centres unmarked) [Compound 57] , state its measured Chemical Stability SGF, no enzyme % T0 at 2 hours at 37 °C..
Output: 89

Input: Using the record for Cl.[2H]C([2H])([2H])N(CC(=O)OC(C)C(C)(C)C)C(=N)NC(=O)CCCCCC (centres unmarked) [Compound 53] , state its measured Chemical Stability SGF, no enzyme % T0 at 2 hours at 37 °C..
Output: 91

Input: Using the record for [2H]C([2H])([2H])N(CC(=O)OC(C)(C)C(C)(C)O)C(=N)NC(=O)CCCCCC [Compound 63] , state its measured Chemical Stability SGF, no enzyme % T0 at 2 hours at 37 °C..
Output: 101

Input: Using the record for [2H]C([2H])([2H])N(CC(=O)OC(C)(C)C(C)C)C(=N)NC(=O)CCCCCC [Compound 60] , state its measured Chemical Stability SGF, no enzyme % T0 at 2 hours at 37 °C..
Output: 99

Input: Using the record for [2H]C([2H])([2H])N(CC(=O)OC(C)(C)C(C)C)C(=N)NC(=O)CCCCCCCCCC [Compound 62] , state its measured Chemical Stability SGF, no enzyme % T0 at 2 hours at 37 °C..
Output: 103

Input: Using the record for Cl.[2H]C([2H])([2H])N(CC(=O)OC(C)(C)C)C(=N)NC(=O)CCCCCCCCCC [Compound 44] , state its measured Chemical Stability SGF, no enzyme % T0 at 2 hours at 37 °C..
Output: 95

These measurements were taken from patent US11332438B2.
